The measurements presented in this section are drawn from BigSolDB 2.1.

- CONDITION_INFO: in DMF, 293.15 K
VALUE_KIND: solubility (mole fraction)
Answers are plain numbers.

Data request: In one line, give reported solubility (mole fraction) of the entry CC(=O)Oc1ccc(C(c2ccc(OC(C)=O)cc2)c2ccccn2)cc1 .
Data returned: 0.0429

* * *

- CONDITION_INFO: in PEG-400, 308.15 K
VALUE_KIND: solubility (mole fraction)

Data request: Entry CC(=O)Oc1ccc(C(c2ccc(OC(C)=O)cc2)c2ccccn2)cc1 needs its solubility (mole fraction) filled in; supply it.
Data returned: 0.0237

* * *

- CONDITION_INFO: in n-propanol, 308.15 K
VALUE_KIND: solubility (mole fraction)
Answers are plain numbers.

Data request: Name the recorded solubility (mole fraction) of the molecule listed here: CC(=O)Oc1ccc(C(c2ccc(OC(C)=O)cc2)c2ccccn2)cc1
Data returned: 0.00131

* * *

- CONDITION_INFO: in acetone, 308.15 K
VALUE_KIND: solubility (mole fraction)
Numbers only.

Data request: Look up and state reported solubility (mole fraction) for CC(=O)Oc1ccc(C(c2ccc(OC(C)=O)cc2)c2ccccn2)cc1
Data returned: 0.0281

* * *

- CONDITION_INFO: in methanol, 288.15 K
VALUE_KIND: solubility (mole fraction)
Give bare numbers.

Data request: Assign solubility (mole fraction) to the following record: CC(=O)Oc1ccc(C(c2ccc(OC(C)=O)cc2)c2ccccn2)cc1
Data returned: 0.000961

* * *

- CONDITION_INFO: in acetonitrile, 303.15 K
VALUE_KIND: solubility (mole fraction)
One number for each entry.

Data request: Tell me solubility (mole fraction) reported for CC(=O)Oc1ccc(C(c2ccc(OC(C)=O)cc2)c2ccccn2)cc1
Data returned: 0.0193

* * *

- CONDITION_INFO: in isopropanol, 288.15 K
VALUE_KIND: solubility (mole fraction)
Give bare numbers.

Data request: Please report the measured solubility (mole fraction) for CC(=O)Oc1ccc(C(c2ccc(OC(C)=O)cc2)c2ccccn2)cc1
Data returned: 0.000238

* * *

- CONDITION_INFO: in THF, 293.15 K
VALUE_KIND: solubility (mole fraction)
One number for each entry.

Data request: Provide solubility (mole fraction) value for the following compound: CC(=O)Oc1ccc(C(c2ccc(OC(C)=O)cc2)c2ccccn2)cc1
Data returned: 0.0237

* * *

- CONDITION_INFO: in ethanol, 298.15 K
VALUE_KIND: solubility (mole fraction)
Answers are plain numbers.

Data request: Supply solubility (mole fraction) value. Item: CC(=O)Oc1ccc(C(c2ccc(OC(C)=O)cc2)c2ccccn2)cc1
Data returned: 0.000852

* * *

- CONDITION_INFO: in ethanol, 288.15 K
VALUE_KIND: solubility (mole fraction)
Give bare numbers.

Data request: Answer with reported solubility (mole fraction) of CC(=O)Oc1ccc(C(c2ccc(OC(C)=O)cc2)c2ccccn2)cc1
Data returned: 0.000471

* * *

- CONDITION_INFO: in ethanol, 293.15 K
VALUE_KIND: solubility (mole fraction)

Data request: Give a short answer stating reported solubility (mole fraction) for CC(=O)Oc1ccc(C(c2ccc(OC(C)=O)cc2)c2ccccn2)cc1 .
Data returned: 0.000639

* * *

- CONDITION_INFO: in water, 293.15 K
VALUE_KIND: solubility (mole fraction)
Give bare numbers.

Data request: Using the record for CC(=O)Oc1ccc(C(c2ccc(OC(C)=O)cc2)c2ccccn2)cc1 , state its measured solubility (mole fraction).
Data returned: 1.56e-07
